Reference source for all entries: patent EP4644391A1

# System: Hela
# Procedure Text: In vitro anticancer activity test (MTT cell proliferation assay)
# Type: cell-based
# Condition Info: Homo sapiens, average proliferation inhibition rate at the dosage of 40 µM
Observable: inhibition at 40 µM

Below: 5 compounds and their reported inhibition at 40 µM.
# Smiles Input, Observable, Reported
measured = [
    ("COc1cc(-c2cc3c(cc2F)c(=O)c(C(=O)O)cn3C2CC2)ccc1NC(=O)C(C)(C)C", "inhibition at 40 µM", "≥ 50%"),
    ("CCCCCCCNS(=O)(=O)c1ccc(-c2cc3c(cc2F)c(=O)c(C(=O)O)cn3-c2ccc(F)cn2)cc1", "inhibition at 40 µM", "≥ 50%"),
    ("Nc1ccc(-c2c(F)cc3c(=O)c(C(=O)NO)cn(C4CC4)c3c2Cl)cc1[N+](=O)[O-]", "inhibition at 40 µM", "≥ 20%"),
    ("O=C(O)c1cn(C2CC2)c2c(Cl)c(-c3ccc(S(=O)(=O)NCCCC(F)(F)F)nc3)c(F)cc2c1=O", "inhibition at 40 µM", "≥ 50%"),
    ("CCCCCCCNS(=O)(=O)c1ccc(-c2cc3c(cc2F)c(=O)c(C(=O)O)cn3-c2ccc(F)cc2)cc1", "inhibition at 40 µM", "≥ 50%"),
]

Switching to the query record.
Tell me the measured inhibition at 40 µM of CCCCCCCNS(=O)(=O)c1ccc(-c2cc3c(cc2F)c(=O)c(C(=O)O)cn3C2CC2)cc1 , please.
≥ 50%
